assay_info: HS68 cytotoxicity test (MTS cell viability)
Format: cell-based
condition_summary: human, HS68 cells (skin fibroblasts), HS68, 10 μg/ml
measurement_kind: viability at 24 h, 10 µg/mL
Give the number first and the unit second.

CCCOC(=O)[C@H](CC(N)=O)NC(=O)CNC(=O)[C@@H]1CCCN1: 107%

input: Which viability at 24 h, 10 µg/mL is reported for this compound? NC(=O)C[C@H](NC(=O)CNC(=O)[C@@H]1CCCN1)C(=O)O [PGN, Pro-Gly-Asn, reference compound]
output: 117%

input: Which viability at 24 h, 10 µg/mL is reported for this compound? "CCCCCCCCCCCCCCCC(=O)N1CCC[C@H]1C(=O)NCC(=O)N[C@@H](CC(N)=O)C(=O)O"
output: 111%

input: Which viability at 24 h, 10 µg/mL is reported for this compound? "CN1CCC[C@H]1C(=O)NCC(=O)N[C@@H](CC(N)=O)C(=O)O"
output: 104%
